Listing of entries alongside the reported Max (maximum inhibition observed at concentrations tested).
# Test system: affinity purified β2GPI-dependent antiphospholipid antibody
# ASSAY_PROTOCOL: Competitive inhibition ELISA: recombinant β2GPI proteins compete for antibody binding to coated full length recombinant β2GPI
# Parameters: species or system human
# CONDITION_DESCRIPTION: Ab 7008
# Protocol: Microtiter plates (MaxiSorp™, Nalge Nunc International, Denmark) were coated with 50 μl of full length recombinant β2GPI at 10 μg/ml in 0.1 M bicarbonate, pH 9.5, incubated overnight at 4° C., washed three times with 0.15 M PBS, pH 7.2, and blocked for one hour at room temperature with 75 μl of 2% Non-fat Dried Milk (Carnation, 2% NFDM). […] The Optical Density, at 550 nm, was determined by reading the plates in a microplate autoreader (Bio-Teck Instruments, model EL3 11). […]
Expressed in %, but write only the number.

Below: 4 molecules and their reported Max (maximum inhibition observed at concentrations tested).
12---: recombinant β2GPI deletion mutant with domains 1 and 2 (protein) GRTCPKPDDLPFSTVVPLKTFYEPGEEITYSCKPGYVSRGGMRKFICPLTGLWPINTLKCTPRVCPFAGILENGAVRYTTFEYPNTISFSCNTGFYLNGADSAKCTEEGKWSPELPVCAPIIGHHHHHH = 40
recombinant β2GPI domain 5 with GlyHis6 (----5) (protein) GRASCKLPVKKATVVYQGERVKIQEKFKNGMLHGDKVSFFCKNKEKKCSYTEDAQCIDGTIEVPKCFKEHSSLAFWKTDASDVKPCGHHHHHH = 20
1----: recombinant β2GPI protein with domain 1 only (SEQ ID NO:4 region), His6 tail (protein) GRTCPKPDDLPFSTVVPLKTFYEPGEEITYSCKPGYVSRGGMRKFICPLTGLWPINTLKCTPRVGHHHHHH = 70
123--: recombinant β2GPI deletion mutant with domains 1, 2, 3 (protein) GRTCPKPDDLPFSTVVPLKTFYEPGEEITYSCKPGYVSRGGMRKFICPLTGLWPINTLKCTPRVCPFAGILENGAVRYTTFEYPNTISFSCNTGFYLNGADSAKCTEEGKWSPELPVCAPIICPPPSIPTFATLRVYKPSAGNNSLYRDTAVFECLPQHAMFGNDTITCTTHGNWTKLPECGHHHHHH = 80

Problem: Which value of Max (maximum inhibition observed at concentrations tested) has been reported for -2345: recombinant β2GPI deletion mutant with domains 2-5 (protein) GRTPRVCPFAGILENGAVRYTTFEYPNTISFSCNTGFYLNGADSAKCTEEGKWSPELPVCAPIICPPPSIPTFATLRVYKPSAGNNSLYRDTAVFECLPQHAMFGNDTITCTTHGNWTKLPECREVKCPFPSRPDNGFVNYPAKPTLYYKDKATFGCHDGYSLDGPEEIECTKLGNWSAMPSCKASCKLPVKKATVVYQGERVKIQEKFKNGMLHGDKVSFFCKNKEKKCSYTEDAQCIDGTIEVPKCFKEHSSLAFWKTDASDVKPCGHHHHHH in the records?
Result: 20
